assay: Inhibitory effect against collagen-induced platelet aggregation at a concentration of 100 ug/mL; assay type: functional
propertyName: IC50 (µM)
Give bare numbers, in µM.

>>> valuemeasured("CC(C)C[C@@H]1NC(=O)[C@@H](CC(C)C)NC(=O)CCNC(=O)[C@H](Cc2ccccc2)N(C)C(=O)[C@H](CC(C)C)OC1=O")
10

Consider now this further compound.
[in] Return reported IC50; argument: CC(C)C[C@@H]1NC(=O)[C@@H](CC(C)C)OC(=O)CCNC(=O)[C@H](Cc2ccccc2)N(C)C(=O)[C@H](CC(C)C)OC1=O
[out] 50
